target: HCV NS5B RdRp genotype 1b (Hepatitis C virus genotype 1b, UniProt Q9WMX2); construct: The protein was expressed with an 18 amino acid C-terminal truncation to enhance the solubility; experiment: HCV NS5B RdRp enzyme assay; settings: HCV RdRp genotype 1b enzyme; read-out: RdRp Inhibition Range, IC50
Sequence (Q9WMX2 2420-2992): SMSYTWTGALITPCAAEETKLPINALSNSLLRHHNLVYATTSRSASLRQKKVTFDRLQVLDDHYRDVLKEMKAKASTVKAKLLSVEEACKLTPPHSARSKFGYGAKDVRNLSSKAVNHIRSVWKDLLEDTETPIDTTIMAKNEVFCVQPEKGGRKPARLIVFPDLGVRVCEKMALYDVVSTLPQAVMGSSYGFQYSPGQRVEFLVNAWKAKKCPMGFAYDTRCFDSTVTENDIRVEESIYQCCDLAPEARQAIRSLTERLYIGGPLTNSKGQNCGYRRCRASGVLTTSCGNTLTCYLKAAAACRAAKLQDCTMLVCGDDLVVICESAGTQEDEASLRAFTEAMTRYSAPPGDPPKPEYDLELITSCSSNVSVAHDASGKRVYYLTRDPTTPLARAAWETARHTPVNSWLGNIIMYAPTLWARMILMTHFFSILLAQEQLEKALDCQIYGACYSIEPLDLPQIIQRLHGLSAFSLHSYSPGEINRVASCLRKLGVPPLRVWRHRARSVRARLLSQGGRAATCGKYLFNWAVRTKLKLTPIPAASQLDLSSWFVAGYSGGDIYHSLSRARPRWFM
pIC50: −log10 of the molar value.
Reported pIC50 values for the following compounds.

• Cn1c(-c2ccoc2)c(C2CCCCC2)c2ccc(C(=O)Nc3nnn[nH]3)cc21 = 6.00 to 7.00

Q. Look at this compound and give its reported pIC50. Cn1c(-c2ccoc2)c(C2CCCCC2)c2ccc(-c3nnn[nH]3)cc21
A. 6.00 to 7.00
